Values were extracted from paper PMC11878344.

Target entity: human MAGL (Homo sapiens)
Sequence (Q99685 whole entry): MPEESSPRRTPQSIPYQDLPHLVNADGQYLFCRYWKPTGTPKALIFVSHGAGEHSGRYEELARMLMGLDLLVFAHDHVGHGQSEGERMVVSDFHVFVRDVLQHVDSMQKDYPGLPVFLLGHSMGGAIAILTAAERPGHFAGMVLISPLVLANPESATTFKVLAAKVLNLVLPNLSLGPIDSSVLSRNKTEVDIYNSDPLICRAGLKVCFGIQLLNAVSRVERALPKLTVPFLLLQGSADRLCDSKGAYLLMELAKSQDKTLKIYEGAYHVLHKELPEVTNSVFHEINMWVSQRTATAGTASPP
Assay notes: In vitro MAGL inhibition assay (2-AG hydrolysis followed by mass spectrometry)
Format: biochemical
Measurement parameters: Supporting Information Tables S1-S5; read-out: IC50 hMAGL
pIC50: −log10 of the molar value.
In this section we review reported pIC50 values for a set of compounds.

Compound	pIC50
O=C1CO[C@H]2CCN(C(=O)N3CC(OCc4ccccc4OCCNC(=O)OCc4ccccc4)C3)C[C@H]2N1	7.15
O=C1CO[C@H]2CCN(C(=O)N3CCC4(CC3)CC(OCc3ccccc3OCCNC(=O)OCc3ccccc3)C4)C[C@H]2N1	8.15
CN1/C(=C\C=C\C2=[N+](CCCCCC(=O)NCCOc3ccccc3CC3CC4(C3)CN(C(=O)N3CC5(COC(=O)N5)C3)C4)c3ccccc3C2(C)C)C(C)(C)c2ccccc21	9.91
O=C1CO[C@H]2CCN(C(=O)N3C[C@@H]4C(COCc5ccccc5OCCNC(=O)OCc5ccccc5)[C@@H]4C3)C[C@H]2N1 (stereo partly shown)	7.01
O=C1CO[C@H]2CCN(C(=O)N3CC(OCc4cccc(OCCNC(=O)OCc5ccccc5)c4)C3)C[C@H]2N1	7.36
O=C1CO[C@H]2CCN(C(=O)N3CC(COCc4ccccc4OCCNC(=O)OCc4ccccc4)C3)C[C@H]2N1	8.70
O=C1CO[C@H]2CCN(C(=O)N3CC4(CC(OCc5cccc(OCCNC(=O)OCc6ccccc6)c5)C4)C3)C[C@H]2N1	7.55
O=C1CO[C@H]2CCN(C(=O)N3CC4(CC(OCc5ccccc5OCCNC(=O)OCc5ccccc5)C4)C3)C[C@H]2N1	7.96
O=C1CO[C@H]2CCN(C(=O)N3CC(COCc4cccc(OCCNC(=O)OCc5ccccc5)c4)C3)C[C@H]2N1	7.51
O=C1CO[C@H]2CCN(C(=O)N3CC(COCc4ccccc4OCCCNC(=O)OCc4ccccc4)C3)C[C@H]2N1	8.52
O=C1CO[C@H]2CCN(C(=O)N3CC(COCc4ccccc4OCCCCCNC(=O)OCc4ccccc4)C3)C[C@H]2N1	7.34
O=C1NC2(CO1)CN(C(=O)N1CC3(CC(Cc4ccccc4OCCNc4ccc([N+](=O)[O-])c5c4NON5)C3)C1)C2	9.91
O=C1COc2ccc(C(=O)N3CC(COCc4ccccc4OCCNC(=O)OCc4ccccc4)C3)cc2N1	8.12
CN(C)c1ccc2c(c1)[Si](C)(C)c1cc(N(C)C)ccc1C21OC(=O)c2ccc(C(=O)NCCCCCOc3ccccc3CC3CC4(C3)CN(C(=O)N3CC5(COC(=O)N5)C3)C4)cc21 (stereo not shown)	9.73
O=C1CO[C@H]2CCN(C(=O)N3CC4(CCC(OCc5ccccc5OCCNC(=O)OCc5ccccc5)CC4)C3)C[C@H]2N1	7.82
O=C(NCCOc1ccccc1COCC1CN(C(=O)CC[C@@H]2COC(=O)N2)C1)OCc1ccccc1	8.04

###

In this section we review reported pIC50 values for a set of compounds.
Target entity: mouse MAGL (Mus musculus)
Sequence (O35678 1-303): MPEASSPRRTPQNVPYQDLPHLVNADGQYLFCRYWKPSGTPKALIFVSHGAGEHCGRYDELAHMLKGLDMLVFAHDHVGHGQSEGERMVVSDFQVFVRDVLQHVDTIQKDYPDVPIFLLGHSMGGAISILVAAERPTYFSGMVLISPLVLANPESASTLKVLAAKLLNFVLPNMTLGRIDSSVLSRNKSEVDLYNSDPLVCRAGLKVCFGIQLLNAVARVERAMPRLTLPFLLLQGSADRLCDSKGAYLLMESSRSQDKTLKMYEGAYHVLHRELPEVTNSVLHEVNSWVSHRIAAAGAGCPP
Assay notes: In vitro MAGL inhibition assay (2-AG hydrolysis followed by mass spectrometry)
Assay type: biochemical
Measurement parameters: Supporting Information Tables S1-S5; read-out: IC50 mMAGL
Protocol: 4. Experimental Details of Biochemical Assays and Crystal Structure In Vitro MAGL Inhibition Assay Compounds were profiled for MAGL inhibitory activity by determining the enzymatic activity by following the hydrolysis of the natural substrate 2-arachidonoylglycerol (2-AG), resulting in arachidonic acid, which can be followed by mass spectrometry. […] The activity of the compounds was calculated based on the ratio of intensities [arachidonic acid / d8- […]
pIC50: −log10 of the molar value.
Quantity: pIC50

>>> print(df.to_string())
                              line_notation              target_entity  measurement
0  O=C1CO[C@H]2CCN(C(=O)N3CC4(CC(OCc5cccc(OCCNC(=O)OCc6ccccc6)c5)C4)C3)C[C@H]2N1  mouse MAGL (Mus musculus)         7.12
1  O=C(NCCOc1ccccc1COCC1CN(C(=O)CC[C@@H]2COC(=O)N2)C1)OCc1ccccc1  mouse MAGL (Mus musculus)         7.18
2  O=C1CO[C@H]2CCN(C(=O)N3CC4(CCC(OCc5ccccc5OCCNC(=O)OCc5ccccc5)CC4)C3)C[C@H]2N1  mouse MAGL (Mus musculus)         7.42
3  O=C1CO[C@H]2CCN(C(=O)N3CC4(CC(OCc5ccccc5OCCNC(=O)OCc5ccccc5)C4)C3)C[C@H]2N1  mouse MAGL (Mus musculus)         7.42
4  O=C1CO[C@H]2CCN(C(=O)N3CC(COCc4cccc(OCCNC(=O)OCc5ccccc5)c4)C3)C[C@H]2N1  mouse MAGL (Mus musculus)         7.01
5  O=C1NC2(CO1)CN(C(=O)N1CC3(CC(Cc4ccccc4OCCNc4ccc([N+](=O)[O-])c5c4NON5)C3)C1)C2  mouse MAGL (Mus musculus)         9.86
